// provenance: ChEMBL document CHEMBL1201862

Listed here: items and their measured GI50.
- System: SF-539
- TEST METHOD NOTES: NCI tumour cell line growth inhibition, 48 h
The source made the active and inactive calls. No stated cut-off is given here; in the data, active = GI50 up to about 1.1 µM and inactive = higher.
MEASUREMENT NAME: GI50

- N=C(N)N/N=C/c1c(-c2ccccc2[N+](=O)[O-])nc2sccn12: 19.2 µM (inactive)
- N#CC1(Cc2ccccc2)CCCCN1C(=O)c1ccccc1 (centres undefined): > 100 µM (inactive)
- Cc1nn(-c2cc(Cl)ccc2[N+](=O)[O-])c(C)c1Cl: > 100 µM (inactive)
- COc1cc2c(cc1OC)C1c3ccccc3CCCN1CC2 (centres undefined): > 100 µM (inactive)
- CNc1nc(N)nc(Nc2ccc(I)cc2)c1N=O: > 100 µM (inactive)
- C[C@H]1COC2=C1C(=O)C(=O)c1c2ccc2c1CCCC2(C)C [CRYPTOTANSHINONE]: 3.35 µM (inactive)
- O=[N+]([O-])c1cccc(/N=C2\c3ccccc3CN2c2cccc([N+](=O)[O-])c2)c1: 71 µM (inactive)
- CC1(C)OC[C@@]2([C@@H]3CC[C@@H](C3)C2(C)C)N1O: > 100 µM (inactive)
- CC1(C)COC2(OC1)C1=NS(=O)(=O)CC13CCC2C3(C)C (centres undefined): > 100 µM (inactive)
- CCOC(=O)c1[nH]c(COC(C)=O)c2c1CCCCCCCCCC2: > 100 µM (inactive)
- O=C1OC(c2ccc([N+](=O)[O-])cc2)=N/C1=C\c1ccc(Cl)cc1: > 100 µM (inactive)
- COP(=O)(CP(=O)(OC)OCCC(C)CCC=C(C)C)OC (centres undefined): > 100 µM (inactive)
- Cc1nn(-c2ccccc2)c2c1C(c1cc3ccccc3nc1Cl)NC(=O)N2 (centres undefined): 19.9 µM (inactive)
- Cc1ccc2c(ccc3c[n+]4ccccc4c(C)c32)c1.[O-][Cl+3]([O-])([O-])[O-]: 2.3 µM (inactive)
- C/C=C1/CN2CCC34C5=CC(=O)C(c6cc7c(cc6OC)N(C)C6=C(C(=O)OC)CC8(CC)CCCN9CCC67C98)=CC5=NC23CCC1C4C(=O)OC (centres undefined): 14.6 µM (inactive)
- C/C(=C/CC[C@]1(CO)CC[C@]2(C)[C@H](CC[C@@H]3[C@@]4(C)CC[C@H](OC5OC(CO)C(O)C(O)C5OC5OC(CO)C(O)C(O)C5O)C(C)(C)[C@@H]4CC[C@]32C)[C@H]1O)CO (some centres undefined): > 100 µM (inactive)
- COc1ccc(N2C(=O)/C(=C\c3cc(OC)c(OC)c(OC)c3)SC2c2ccccc2)cc1 (centres undefined): > 100 µM (inactive)
- Cc1cc2c(=O)c3ccccc3[nH]c2c(C(N)=O)c1C: > 100 µM (inactive)
- CCNC(=O)OCc1c(COC(=O)NCC)c(-c2ccc(Cl)c(Cl)c2)n2c1CCC2: 11.5 µM (inactive)

---

- System: SK-MEL-28
- TEST METHOD NOTES: NCI tumour cell line growth inhibition, 48 h
The source made the active and inactive calls. Rule as the data show it: active = GI50 up to about 1.1 µM and inactive = higher.
Outcomes: TRUE for active, FALSE for inactive

- CCOC(=O)c1sc2nc(SC)nc3c2c1NCN3c1ccc2c(c1)OCO2: FALSE
- c1ccc(CCN2CCN=C2Cc2ccccc2)cc1: FALSE
- CO/N=C/c1cc(OC)c(OC)c(OC)c1: FALSE
- COc1cc([C@@H]2c3cc4c(cc3C[C@H]3COC(=O)[C@@H]32)OCO4)cc(OC)c1OC: TRUE
- CC(=O)Nc1ccc(N2C(=O)CS(=O)(=O)C2c2cccc(Oc3ccccc3)c2)cc1 (stereo unspecified): FALSE
- C=C(Br)CN(C(C)=O)C1CCCCC1: FALSE
- C/C(=N\O)c1ccc(Nc2c3ccccc3nc3occc23)cc1: TRUE
- CNc1ccc(OC)cc1S(=O)(=O)c1ccccc1[N+](=O)[O-]: FALSE
- O=C(Cn1cc(-c2ccccc2)nn1)NC1CCCCC1: FALSE
- CCOc1ccc(/C=N/[N+](C)(C)C)cc1OCC: FALSE
- CCOC(=O)[C@H](Cc1ccccc1)NC(=O)c1nc[nH]c1[N+](=O)[O-]: FALSE

---

- Tested on: HT-29
- TEST METHOD NOTES: NCI tumour cell line growth inhibition, 48 h
Calls of active or inactive are those of the source. No stated cut-off is given here; in the data, active = GI50 up to about 1.1 µM and inactive = higher.
MEASUREMENT NAME: GI50

- CCNC(=O)OCc1c(COC(=O)NCC)c(-c2ccc(Cl)c(Cl)c2)n2c1CCC2: 18.3 µM (inactive)
- CN1S(=O)(=O)N(C)P12(N=P(CP(=NP13(N(C)S(=O)(=O)N1C)N(C)S(=O)(=O)N3C)(c1ccccc1)c1ccccc1)(c1ccccc1)c1ccccc1)N(C)S(=O)(=O)N2C: > 100 µM (inactive)
- C[C@]12CC(c3ccccc3O1)C(C(=O)Nc1nc(C34CC5CC(CC(C5)C3)C4)cs1)C(=O)N2 (stereo not given in full): > 100 µM (inactive)
- COC(=O)c1ccc(C(=O)NC(Cc2ccc(Oc3cc(CC(NC(=O)c4ccccc4C(=O)OC)C(=O)OC)ccc3OC)cc2)C(=O)OC)cc1 (stereo not given): > 100 µM (inactive)
- Nc1nc(N)c(CCCCc2ccccc2)c(C=O)n1: 9.62 µM (inactive)

---

- Tested on: UACC-62
- TEST METHOD NOTES: NCI tumour cell line growth inhibition, 48 h
Calls of active or inactive are those of the source. Cut-off read from the data, not from the text of the source: active = GI50 up to about 1.1 µM and inactive = higher.
MEASUREMENT NAME: GI50

* CNc1nc(N)nc(Nc2ccc(I)cc2)c1N=O | 48 µM (inactive)
* O=C1Nc2ccccc2/C1=N/Nc1nc(-c2ccc(Br)cc2)cs1 | 20.6 µM (inactive)
* Cc1ccc(S(=O)(=O)OC2C3OC(C)(C)OC3OC2C(c2cc(O)c3c(c2O)C(=O)c2ccccc2C3=O)c2cc(O)c3c(c2O)C(=O)c2ccccc2C3=O)cc1 (stereo not given) | > 10 µM (inactive)
* Cc1cc(S(=O)(=O)Nc2nc3ccccc3n2-c2ccccc2)c(S)cc1Cl | > 100 µM (inactive)
* O=C1N=C2N=C(c3ccc(Cl)cc3)N(c3ccc(Cl)cc3)N2Sc2ccccc21 | > 100 µM (inactive)
* CC(=O)Oc1ccc(CO)cc1OC(C)=O | > 100 µM (inactive)
* C#CCCCCC#Cc1ccccc1C(=O)OC | 32.7 µM (inactive)
* OC12C3C4CC5C(C4[C@@H]1Br)C2[C@@](O)(c1c(F)c(F)c(F)c(F)c1F)C53 (stereo not given in full) | 25.6 µM (inactive)
* CCCCS(=O)(=O)CCC(N)C(=O)O (stereo not given) | > 100 µM (inactive)
* CCOC(=O)c1sc2nc(SC)nc3c2c1NCN3c1ccc2c(c1)OCO2 | 12.2 µM (inactive)

---

- System: OVCAR-4
- TEST METHOD NOTES: NCI tumour cell line growth inhibition, 48 h
Active and inactive are the calls of the source. No stated cut-off is given here; in the data, active = GI50 up to about 1.1 µM and inactive = higher.
MEASUREMENT NAME: GI50

- O=C1CC(c2cccc(Cl)c2)Oc2ccccc21 (stereo unspecified): 22.4 µM (inactive)
- OCC[N+]12CCCN1CCC2: > 100 µM (inactive)
- Cc1ccc2[nH]c3c(C)c4c(c(C)c3c2c1)CN(C)C=C4: 1.66 µM (inactive)
- CCCCOP1(=O)C=C(C)C(=C(Cl)Cl)C(C)=C1 (stereo unspecified): 23.8 µM (inactive)
- CC[C@@]1(O)C(=O)OCc2c1cc1n(c2=O)Cc2cc3cc(OC)ccc3nc2-1: 0.00845 µM (active)
- COc1ccc(/C=C/C(=O)C(C)(C)C)cc1OC: 79.6 µM (inactive)

---

- Test system: M19-MEL
- TEST METHOD NOTES: NCI tumour cell line growth inhibition, 48 h
The source made the active and inactive calls. No stated cut-off is given here; in the data, active = GI50 up to about 1.1 µM and inactive = higher.
Classes used: 1 (active), -1 (inactive)

* COC1CC(CC2CCC(C)C(C(C)C(=O)O)O2)OC2(OC(C)(C3CCC(C)(C4OC(C5OC(O)(CO)C(C)CC5C)CC4C)O3)CC2C)C1C (stereo not given) | 1
* CCOc1ccc(NC(=O)CC2Sc3ccccc3NC2=O)cc1 (stereo not given) | -1
* COC(=O)/C(=C/CC(N=C(c1ccccc1)c1ccccc1)C(=O)OC)N=C(c1ccccc1)c1ccccc1 (stereo not given) | -1
* COc1ccc(N2C(=O)C3c4[nH]c5ccccc5c4C4CCC(C(C)(C)C)CC4C3C2=O)cc1OC (stereo not given) | -1
* CC#CC1C(OC(=O)c2ccccc2)CCCC1(CI)N=[N+]=[N-] (stereo not given) | -1
* CCCCCCCCCCCCNC1(C)CNCCCNCCNCCCNC1 | -1
* COc1ccc(/C=C2\CCC(CN(C)C)C2=O)cc1OC (stereo not given) | -1
* COc1cc([C@@H]2c3cc4c(cc3C[C@H]3COC(=O)[C@@H]32)OCO4)cc(OC)c1OC | 1
* O=C1N=C2N=C(c3ccc(Cl)cc3)N(c3ccc(Cl)cc3)N2Sc2ccccc21 | -1
* COC(=O)c1sc(C(=O)OC)c2c1CSC2 | -1
